assay: yeast display, Sf9 membrane polyspecificity reagent, FACS + sequencing; frameworks hold sequencing errors
Readout label: polyreactivity (PSR sort gate)

Record sequence | Reported
QVQLVESGGGLDQAGGSLRLSCAASGGIFYHNAMGWYRQAPGKERELVAVISWSRTRTYYADSVKGRFTISRDNAKNTVYLQMNILTPDDTAVYYCAASPDPYWVRMDYWGQGTQVNVSS | high polyreactivity
QVQLVDSGGGLVQAGGSLRLSCAASGSIFSSYVRGWYRQAPGKERELVAAITSRGGSTYYADSVKGRFTISRDNAKNTVYLQMNSLKPEDTAVYYCAKGGTLGGYWGQGTQVTVSS | high polyreactivity
QVQLVESGGGLVQAGGSLRLSCAASGRIFAYYTMGWYRQAPGKERELVAAITNGGRTSYADSVKGRFTISRDNAKNTVYLQMNSLKPEDTAVYYCNAQQYRWPRVYYNYNYWGQGTQVTVSS | high polyreactivity

----------
experiment: yeast display, Sf9 membrane polyspecificity reagent, FACS + sequencing; frameworks hold sequencing errors
Readout label: polyreactivity (PSR sort gate)

Record sequence | Readout label | Reported
QVQLVESGGGLVQAGGSLRLSCAASGIIFRYYAMGWYRPAPGKERELVAAISSGGSTNYADSVKGRFTISRDNAKNTVYLQMNSLKPEDTAVYYCAADYTYNGLEYDYWGQGTQVTVSS | polyreactivity (PSR sort gate) | high polyreactivity
QVQLVESVGGLVQAGGSLRLSCAASGSIFSYYAMGWYRQAPGKERELVAAITISGSSTYYADSVKGRFTISRDNAKNTVYLQMNSLKPEDTAVYYCNARTIRNWSGQHIYDYWGQGTQVTVSS | polyreactivity (PSR sort gate) | high polyreactivity
QVQLVESGGGLVQAGGSLSLSCAASGRIFSTYAMGWYRQAPGKERELVAAITSRGTSTYYADSVKGRFTISRDNAKNTVYLQINSLKPEDSAVYYCAARRERWSSSIVGYWGQGTQVTVSS | polyreactivity (PSR sort gate) | high polyreactivity
QGQLVESGGGLVQAGGSLRLTCAASGRIFKWYAMGWYIQETGKERELVAAISSAGSTYYADSVKGRFTISRDNAKNTVYLQLNSLKPEDTAVYYCAARKYTFRRKSRYGYWGQGTQVTVSS | polyreactivity (PSR sort gate) | high polyreactivity
QVQLVESGGGLVQAGGRLRLSCAASGIIFGYYAMGWYREAPGKEREFVAAINYSGVSTYYADSVKGRLTISRDNAKNTVYLQMNSLKPEDTAVYYCAADFRIVVYGWGGSHMDYWGQGTQVTVSS | polyreactivity (PSR sort gate) | low polyreactivity
QVQLVDSGGGLVQAGGSLRLSCAASGSIFYAYAMGWYRQATGKERQLLAVISRGGITNYSDSVKGRFTISRDNAKNTFFLQMNSLNPEDTAVYYCAAATSAWGYLRRYGYWGQGTQVTVSS | polyreactivity (PSR sort gate) | low polyreactivity

Task: Return reported polyreactivity (PSR sort gate); argument: QVQLVESGGALVQAGGSLRLSCAASGRIFSRYVIRWYRQAPGKERELVAAISWNGGSTYYADSVKGRFRISRDNAKNTVYLQMNSLKPEDTAVYYCAARVRVTGTYYTKFDYWGQGTQVTVSS
Output: high polyreactivity

Task: Return reported polyreactivity (PSR sort gate); argument: QVQLVESGGGLVQAGGSLRLSCAASGFILDYNAMGWYRQAPGKERELVATITGRGDRTYYADSVKGRVTISRDNAKNTVYLQMNSLKPEDTAGYYCAAGFDGSRHPGFDSWGQGTQVTVSS
Output: low polyreactivity

Task: Return reported polyreactivity (PSR sort gate); argument: QVQLVESGGGLGQAGGSLRLSCTASGRIFPYYAMGWYRQAPGKERELVAALSGRGGRTYYADSVKGRFTISRDNAKNTVYLQMNSLNPEDTAVYYCNARVQAVHYGYWGQGTQVTVSS
Output: high polyreactivity

Task: Return reported polyreactivity (PSR sort gate); argument: QVQLVESGGGLVQAGGSLRLSCAASGFIFGGYVMGWYRQAPGKERELVAAITWSGGSTYYADSVKGRFTISRDNAKHTVYVQLNSQKREDTAVYYCNSRVPARLWRWSPYPVDYWGQGTQVTLSS
Output: high polyreactivity

Task: Return reported polyreactivity (PSR sort gate); argument: QVQLVDSGGGLVQAGGSLRLSSPASGIIFTRYTMGCYSQEPGKERELVAAITTSGGRTYYADSVKGRFTISRDNAKNTVYLPMNSLKPEDTAVYYCDVSGHARYDYWGQGTQVTVSS
Output: high polyreactivity

These measurements were taken from the nanobody polyreactivity screen of Harvey et al. (2022).
